Source: PubChem BioAssay AID1159580

- protocol: chemical genetic growth profiling, strain panel (AID 1159580);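 note: tested at 20 µM; growth read once vehicle control cultures reached saturation at 30 °C; 1 = growth at the plate median or of vehicle wells; lower values mean less growth of the strain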
- reported conditions: S. cerevisiae deletion strains, growth OD, locus YNL307C, strain MCK1, active compounds read low
Screen size: about 5,500 compounds; about 2,000 (36%) were called active. Another 18% or so got no clear call; they are omitted. Some of the results follow.
observed property: normalized growth
// return just the number, without any unit appended

Query: normalized growth; subject: CC(=O)O[C@H]1CC[C@@]2(C)C(=CCC3C2CC[C@@]2(C)C3CC[C@@H]2C(C)CCCC(C)C)C1 (stereo not given in full)
1.03

Please give the result for `CCOP(=S)(OCC)SCSCC` too.
1

Please give the result for COc1cc(C)c2c(c1C=O)Oc1c(c(C)c(O)c3c1C(O)OC3=O)OC2=O (stereo not given) too.
1

Please give the result for CC12CCC3C(CC=C4CC(O)CCC43C)C1CCC2=O (stereo not given) too.
0.707

Please give the result for `CCOP(=S)(OCC)Oc1ccc2c(C)c(Cl)c(=O)oc2c1` too.
0.981

Please give the result for CCC(CCC(C)C1CCC2C3CC=C4C[C@@H](OC(C)=O)CC[C@]4(C)C3CC[C@]12C)C(C)C (stereo not given in full) too.
0.975

Please give the result for CC1CC2C(C(O)CC3(C)C2CCC3(O)C(=O)COC(=O)CCC(=O)O)C2(C)C=CC(=O)C=C12 (stereo not given) too.
0.987

Please give the result for CC(=O)O[C@H]1CC[C@@]2(C)C(=CCC3C2CC[C@]2(C)C(=O)CCC32)C1 (stereo not given in full) too.
0.516

Please give the result for `CCOP(=S)(OCC)SCSP(=S)(OCC)OCC` too.
0.987

Please give the result for `O=C1O[C@@H](CO)[C@H](O)[C@@H](O)[C@@H]1O` too.
1

* * *

What normalized growth was measured for each of the following?
- protocol: chemical genetic growth profiling, strain panel (AID 1159580)
- reported conditions: S. cerevisiae deletion strains, growth OD, locus YHR079C, strain IRE1 (second series), active compounds read low
Out of some 5,500 compounds screened, about 2,000 (36%) were called active. Roughly 18% stayed inconclusive and do not appear here. The list shows a part of the results.
// return just the number, without any unit appended

Query: normalized growth; subject: `CC[C@]12CCCN3CCc4c(n(c5ccccc45)C(=O)C1)[C@@H]32`
0.982

Please give the result for CO[C@@H]1C[C@@H](C[C@H]2CC[C@H](C)[C@H]([C@@H](C)C(=O)O)O2)O[C@]2(O[C@](C)([C@H]3CC[C@@](C)(C4O[C@@H](C5O[C@@](O)(CO)[C@H](C)C[C@@H]5C)C[C@@H]4C)O3)C[C@H]2C)[C@@H]1C (stereo partly specified) too.
0.968

Please give the result for `CCOC(=O)C1=C[C@]2(CC)CCCN3CCc4c(n1c1ccccc41)[C@@H]32` too.
0.985

Please give the result for CC[C@@]1(C2O[C@@H](C3O[C@@](O)(CC)[C@H](C)C[C@@H]3C)C[C@@H]2C)CC[C@H]([C@]2(C)CCC3(C[C@H](O)[C@@H](C)[C@@H]([C@H](C)[C@@H](OC)[C@H](C)C(=O)O)O3)O2)O1 (stereo partly specified) too.
0.991

Please give the result for CC[C@@H](C(=O)O)[C@@H]1O[C@@H]([C@@H](C)[C@H](O)[C@H](C)C(=O)[C@H](CC)[C@H]2O[C@]3(C=C[C@@H](O)[C@]4(CC[C@@](C)(C5CC[C@](O)(CC)[C@H](C)O5)O4)O3)[C@H](C)C[C@@H]2C)[C@@H](C)C[C@H]1C (stereo partly specified) too.
0.39

Please give the result for `CC[C@]12CCCN3CCc4c(n(c5ccccc45)[C@](O)(C(=O)OC)C1)[C@@H]32` too.
0.961

* * *

- protocol: chemical genetic growth profiling, strain panel (AID 1159580);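 note: tested at 20 µM; growth read once vehicle control cultures reached saturation at 30 °C; 1 = growth at the plate median or of vehicle wells; lower values mean less growth of the strain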
- reported conditions: S. cerevisiae deletion strains, growth OD, locus YHR094C, strain hxt1, active compounds read low
The whole screen tested about 5,500 compounds, of which about 2,000 (36%) were called active. Another 18% or so got no clear call; they are omitted. This is one part of the list.
observed property: normalized growth
// return just the number, without any unit appended

Query: normalized growth; subject: CC[C@@H](C(=O)O)[C@@H]1O[C@@H]([C@@H](C)[C@H](O)[C@H](C)C(=O)[C@H](CC)[C@H]2O[C@]3(C=C[C@@H](O)[C@]4(CC[C@@](C)(C5CC[C@](O)(CC)[C@H](C)O5)O4)O3)[C@H](C)C[C@@H]2C)[C@@H](C)C[C@H]1C (some centres not stated)
0.278

Please give the result for `c1ccc2[nH]c(-c3cscn3)nc2c1` too.
1.01

Please give the result for `C=CCc1cc(OC)c2c(c1OC)OCO2` too.
0.935

Please give the result for O=C(O)CCCCC1SCC2NC(=O)NC21 (configuration not stated) too.
1

Please give the result for O=C(O)CCCCCCCCCCCCC1C=CCC1 (configuration not stated) too.
1

Please give the result for `C[C@@]12C(=O)OC(=O)[C@]1(C)C1CCC2O1` too.
0.861

Please give the result for CC[C@@H](C(=O)[C@@H](C)[C@@H](O)[C@H](C)[C@@H]1O[C@@H]([C@@H](CC)C(=O)O)CC[C@@H]1C)[C@H]1OC2(C=C[C@@H](O)[C@]3(CC[C@@](C)([C@H]4CC[C@](O)(CC)[C@H](C)O4)O3)O2)[C@H](C)C[C@@H]1C (some centres not stated) too.
0.877

Please give the result for CC1(C)C2CC(=O)O[C@@]3(C)C4=CC(=O)O[C@@H](c5ccoc5)[C@]4(C)CCC3[C@@]2(C)C=C[C@H]1O (some centres not stated) too.
0.987

Please give the result for Nc1nc(N)c2nc(CNc3ccc(C(=O)NC(CCC(=O)O)C(=O)O)cc3)cnc2n1 (configuration not stated) too.
0.991

Please give the result for CC[C@@]1(C2O[C@@H](C3O[C@@](O)(CC)[C@H](C)C[C@@H]3C)C[C@@H]2C)CC[C@H]([C@]2(C)CCC3(C[C@H](O)[C@@H](C)[C@@H]([C@H](C)[C@@H](OC)[C@H](C)C(=O)O)O3)O2)O1 (some centres not stated) too.
1.02

Please give the result for `COP(=S)(OC)Oc1ccc(SC)c(C)c1` too.
0.984

Please give the result for `COc1c(C(=O)O)ccc2c1CCC(C)(C)O2` too.
0.987

Please give the result for `c1cc2c(cc1[C@H]1OC[C@H]3[C@@H]1CO[C@H]3c1ccc3c(c1)OCO3)OCO2` too.
0.922

Please give the result for CC(=O)C1=C(O)C2C3c4c[nH]c5cccc(c45)CC3C(C)(C)N2C1=O (configuration not stated) too.
1

Please give the result for COc1c(C2COc3cc4c(cc3C2=O)CC(O)C(C)(C)O4)ccc2c1CCC(C)(C)O2 (configuration not stated) too.
1

Please give the result for CC(=O)Oc1cc(C)c2c(c1C(OC(C)=O)OC(C)=O)Oc1c(c(C)c(OC(C)=O)c3c1C(OC(C)=O)OC3=O)OC2=O (configuration not stated) too.
0.978

Please give the result for CCOC(=O)CCCCCCCCCCCCC1C=CCC1 (configuration not stated) too.
0.0651

* * *

- protocol: chemical genetic growth profiling, strain panel (AID 1159580);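 note: tested at 20 µM; growth read once vehicle control cultures reached saturation at 30 °C; 1 = growth at the plate median or of vehicle wells; lower values mean less growth of the strain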
- reported conditions: S. cerevisiae deletion strains, growth OD, locus YHR079C, strain IRE1, active compounds read low
Hit rate of the full screen: of about 5,500 compounds, about 2,000 (36%) were called active. About 18% were inconclusive and are not listed. This is one part of the list.
Hi! Could you tag entries with normalized growth below 1 as T, and those at or above as F? Much appreciated.

Item `O=C(Nc1ccc(Cl)cc1Cl)c1cnccc1C(F)(F)F` : normalized growth beneath 1, strictly?
F

Please give the result for `c1ccc2[nH]c(-c3cscn3)nc2c1` too.
T

Please give the result for `NC(=O)c1cnccn1` too.
F

Please give the result for `CC(=O)C(Sc1nc2ccccc2s1)C(C)=O` too.
T

Please give the result for `CCn1cc(C(=O)O)c(=O)c2ccc(C)nc21` too.
T

Please give the result for `CCn1cc(C(=O)O)c(=O)c2cc3c(cc21)OCO3` too.
F

Please give the result for `C[C@](N)(Cc1ccc(O)cc1)C(=O)O` too.
F

Please give the result for OCC(S)CS (stereo not drawn) too.
T

Please give the result for `O=C1OCCN1/N=C\c1ccc([N+](=O)[O-])o1` too.
T

Please give the result for `CCOC(=O)C1=C[C@]2(CC)CCCN3CCc4c(n1c1ccccc41)[C@@H]32` too.
F

* * *

- protocol: chemical genetic growth profiling, strain panel (AID 1159580);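 note: tested at 20 µM; growth read once vehicle control cultures reached saturation at 30 °C; 1 = growth at the plate median or of vehicle wells; lower values mean less growth of the strain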
- reported conditions: S. cerevisiae deletion strains, growth OD, locus YHR079C, strain IRE1 (second series), active compounds read low
Out of some 5,500 compounds screened, about 2,000 (36%) were called active. About 18% were inconclusive and are not listed. The list shows a part of the results.
What normalized growth was measured for each of the following?
// return just the number, without any unit appended

Query: normalized growth; subject: `COc1ccc2c(c1O)-c1c(OC)c(OC)cc3c1[C@H](C2)N(C)CC3`
1.01

Please give the result for Nc1nc2c(c(=O)[nH]1)N(C=O)C(CNc1ccc(C(=O)N[C@@H](CCC(=O)O)C(=O)O)cc1)CN2 (stereo partly specified) too.
0.989

Please give the result for `O=C1O[C@@H](CO)[C@H](O)[C@@H](O)[C@@H]1O` too.
1

Please give the result for NC(=O)c1cc[n+](CC2=C(C(=O)O)N3C(=O)C(NC(=O)C(c4ccccc4)S(=O)(=O)[O-])C3SC2)cc1 (stereo unspecified) too.
0.996

Please give the result for CCOC(=O)CCCCCCCCCCCCC1C=CCC1 (stereo unspecified) too.
0.0604

Please give the result for `CCn1cc(C(=O)O)c(=O)c2cnc(N3CCCC3)nc21` too.
1

Please give the result for `C[C@](N)(Cc1ccc(O)c(O)c1)C(=O)O` too.
1

Please give the result for CC(=O)O[C@H]1CC[C@@]2(C)C(=CCC3C2CC[C@@]2(C)C3CC[C@@H]2C(C)CCCC(C)C)C1 (stereo partly specified) too.
1.02

Please give the result for CC(=O)C1=C(O)C2C3c4c[nH]c5cccc(c45)CC3C(C)(C)N2C1=O (stereo unspecified) too.
1.02

Please give the result for `O=C1CN(/N=C\c2ccc([N+](=O)[O-])o2)C(=O)N1` too.
0.989

Please give the result for `COC(=O)[C@H]1[C@H]2C[C@@H]3c4[nH]c5cc(OC)ccc5c4CCN3C[C@H]2C[C@@H](OC(=O)c2cc(OC)c(OC)c(OC)c2)[C@@H]1OC` too.
1.01

Please give the result for CC1(C)CC2C1CCC1(C)OC1CCC2(C)O (stereo unspecified) too.
1.01

Please give the result for `CCn1cc(C(=O)O)c(=O)c2cnc(N3CCNCC3)nc21` too.
0.992

Please give the result for `c1cc2c(cc1[C@H]1OC[C@H]3[C@@H]1CO[C@H]3c1ccc3c(c1)OCO3)OCO2` too.
0.902

Please give the result for `Oc1cc(O)cc(/C=C/c2ccccc2)c1` too.
0.976

Please give the result for `CS(=O)(=O)OCCCCOS(C)(=O)=O` too.
0.952

Please give the result for `CCOC(N)=O` too.
1.01

Please give the result for `CCn1cc(C(=O)O)c(=O)c2ccc(C)nc21` too.
0.932

Please give the result for `NCCCCN=C(N)N` too.
0.987

Please give the result for `CC12CCC(CC1)C(C)(C)O2` too.
1.01

Please give the result for CN1CCc2cccc3c2C1Cc1ccc(O)c(O)c1-3 (stereo unspecified) too.
0.994

Please give the result for COc1cc2c(cc1O)CC1c3c(cc(O)c(OC)c3-2)CCN1C (stereo unspecified) too.
0.993

Please give the result for `COc1cc(C(=O)O)c(O)c2c1OCO2` too.
1

Please give the result for `CCOP(=S)(OCC)Oc1ccc2c(C)c(Cl)c(=O)oc2c1` too.
0.988

Please give the result for `Cc1ccc(C(C)C)cc2c(C)ccc1-2` too.
1.02

Please give the result for `O=C(/C=C/c1ccc(O)c(O)c1)O[C@@H]1C[C@](O)(C(=O)O)C[C@@H](O)[C@H]1O` too.
1.01

Please give the result for CN(C)CCCO[C@H]1[C@@H](C(O)CO)OC2OC(C)(C)O[C@@H]21 (stereo partly specified) too.
0.977

Please give the result for `c1ccc2[nH]c(-c3cscn3)nc2c1` too.
1

Please give the result for CCCNC(C)C(=O)Nc1ccccc1C (stereo unspecified) too.
1.01

Please give the result for Nc1nc(N)c2nc(CNc3ccc(C(=O)NC(CCC(=O)O)C(=O)O)cc3)cnc2n1 (stereo unspecified) too.
0.978

Please give the result for CC1(C)CC2C1CCC1(C)OC2(C)CCC1O (stereo unspecified) too.
1.01

Please give the result for `COc1ccc(/C=C/c2cc(O)cc(O)c2)cc1` too.
0.974

Please give the result for CC12CCC3C(CC=C4CC(O)CCC43C)C1CCC2=O (stereo unspecified) too.
1.02

Please give the result for `O=C1N=C(O)CN1/N=C\c1ccc(-c2ccc([N+](=O)[O-])cc2)o1` too.
1.02

Please give the result for `C/C=C/c1ccc(OC)cc1` too.
1.01

Please give the result for `COc1cc(/C=C/C(=O)O)ccc1O` too.
0.972

Please give the result for CC(=O)O[C@H]1CC[C@@]2(C)C(=CCC3C2CC[C@]2(C)C(=O)CCC32)C1 (stereo partly specified) too.
0.962

Please give the result for `COc1cc(/C=C/C(=O)O)cc(OC)c1OC` too.
1.03

Please give the result for `COS(C)(=O)=O` too.
1.02

Please give the result for CC(COc1ccccc1)N(CCCl)Cc1ccccc1 (stereo unspecified) too.
1.02

Please give the result for `COc1cc(O)cc(/C=C/c2ccccc2)c1` too.
0.89

Please give the result for `OC/C=C/c1ccc(O)c(O)c1` too.
0.96

Please give the result for CCCCC(CC)CN=C(N)NC(N)=NCCCCCCN=C(N)NC(N)=NCC(CC)CCCC (stereo unspecified) too.
0.0569

Please give the result for `NC(=O)N/N=C\c1ccc([N+](=O)[O-])o1` too.
0.978

Please give the result for CN(Cc1cnc2nc(N)nc(N)c2n1)c1ccc(C(=O)NC(CCC(=O)O)C(=O)O)cc1 (stereo unspecified) too.
0.988

Please give the result for CC(=O)O[C@H]1C[C@@H](OC(C)=O)C(C)(C)C2C[C@@H](OC(C)=O)[C@]3(C)C(CC[C@@]4(C)[C@H](c5ccoc5)C(=O)[C@H]5O[C@]543)[C@]21C (stereo partly specified) too.
1.03
